Molecular target: T1, recombinant human ROR1 extracellular domain (human, UniProt Q01973 30-406)
T1 construct: biotinylated for the filter lifts; also called huROR1-ECD; human ROR1-ECD
T1 sequence (Q01973 30-406 limits assumed): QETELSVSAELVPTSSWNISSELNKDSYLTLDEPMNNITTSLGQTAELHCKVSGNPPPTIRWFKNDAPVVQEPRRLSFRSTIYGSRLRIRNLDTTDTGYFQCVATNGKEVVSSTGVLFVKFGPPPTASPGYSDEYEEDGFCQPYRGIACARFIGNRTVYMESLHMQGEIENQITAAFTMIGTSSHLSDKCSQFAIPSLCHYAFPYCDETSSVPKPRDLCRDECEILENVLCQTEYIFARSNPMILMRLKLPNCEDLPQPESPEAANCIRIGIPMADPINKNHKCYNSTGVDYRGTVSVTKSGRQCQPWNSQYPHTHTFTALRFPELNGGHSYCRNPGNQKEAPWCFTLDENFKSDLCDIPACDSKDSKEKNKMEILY
Test: capture filter lift
measurementType: binding result

• Ab1 Fab variant H2 D65T (Fab, V domains shown, Fab) VH: QVQLQESGPGLVKPSQTLSLTCTVSGYAFTAYNIHWVRQAPGQGLEWMGSFDPYTGGSSYNQKFKDRLTISKDTSKNQVVLTMTNMDPVDTATYYCARGWYYFDYWGHGTLVTVSS VL: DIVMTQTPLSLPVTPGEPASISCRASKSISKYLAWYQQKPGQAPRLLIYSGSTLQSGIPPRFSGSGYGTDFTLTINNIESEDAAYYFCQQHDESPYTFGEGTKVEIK = binds
